target: EGFR exon 20 ASV Ins V769_D770 (Ba/F3 cells) (Homo sapiens, UniProt P00533, INS769ASV); construct: expressed in transfected cells; host or cells: Ba/F3 (murine pro-B cells), retroviral transduction, puromycin selection, IL3-independent pool; experiment: Inhibitor activity on EGFR phosphorylation (pEGFR AlphaLISA, 2 h), Ba/F3 EGFR exon 20 ASV Ins; assay type: cell-based; conditions: EGFR phosphorylation, AlphaLISA, 2 hours; read-out: ASV IC50 (pEGFR)
Sequence (P00533 with tags, fused parts or gaps INS769ASV): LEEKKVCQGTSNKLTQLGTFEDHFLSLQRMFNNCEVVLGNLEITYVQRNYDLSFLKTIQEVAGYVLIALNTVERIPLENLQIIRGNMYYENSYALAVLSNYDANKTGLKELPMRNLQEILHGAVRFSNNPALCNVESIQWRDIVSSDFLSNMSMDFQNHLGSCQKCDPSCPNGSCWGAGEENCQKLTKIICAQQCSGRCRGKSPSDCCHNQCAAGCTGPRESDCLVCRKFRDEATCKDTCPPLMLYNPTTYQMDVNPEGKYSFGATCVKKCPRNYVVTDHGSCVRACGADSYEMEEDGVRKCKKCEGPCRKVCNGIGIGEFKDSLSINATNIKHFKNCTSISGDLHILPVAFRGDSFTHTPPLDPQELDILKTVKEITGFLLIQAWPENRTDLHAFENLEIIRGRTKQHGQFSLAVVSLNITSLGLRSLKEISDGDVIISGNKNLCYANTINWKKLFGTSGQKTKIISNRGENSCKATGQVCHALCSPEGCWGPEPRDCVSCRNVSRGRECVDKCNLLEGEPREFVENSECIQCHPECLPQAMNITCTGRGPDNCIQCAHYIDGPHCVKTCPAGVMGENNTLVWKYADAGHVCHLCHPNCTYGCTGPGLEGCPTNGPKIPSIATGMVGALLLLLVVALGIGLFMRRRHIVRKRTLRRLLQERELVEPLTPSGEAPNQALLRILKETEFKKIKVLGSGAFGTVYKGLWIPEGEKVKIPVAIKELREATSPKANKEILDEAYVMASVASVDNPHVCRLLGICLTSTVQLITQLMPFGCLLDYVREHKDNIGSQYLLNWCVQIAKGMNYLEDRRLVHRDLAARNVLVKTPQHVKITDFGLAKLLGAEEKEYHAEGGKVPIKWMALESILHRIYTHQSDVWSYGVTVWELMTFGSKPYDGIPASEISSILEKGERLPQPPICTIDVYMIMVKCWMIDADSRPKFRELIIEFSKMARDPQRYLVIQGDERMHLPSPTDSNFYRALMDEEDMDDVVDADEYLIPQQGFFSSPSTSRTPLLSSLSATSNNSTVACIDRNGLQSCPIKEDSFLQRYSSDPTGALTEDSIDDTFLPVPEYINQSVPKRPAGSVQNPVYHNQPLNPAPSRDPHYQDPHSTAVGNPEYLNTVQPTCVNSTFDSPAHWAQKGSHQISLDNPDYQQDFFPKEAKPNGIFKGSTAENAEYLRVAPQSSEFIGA
pIC50: −log10 of the molar value.
The entries below come with measured pIC50 values attached.

Some solved cases for reference:
# compound, pIC50
records = [
    ("COc1c(Cl)cccc1Nc1c(-c2nc(N)ncc2F)[nH]c2c1C(=O)NCC2 [compound 295]", "6.00 to 7.00"),
    ("COCCOc1ccc2nccc(-c3[nH]c4c(c3Nc3cccc(Cl)c3OC)C(=O)NCC4)c2n1 [compound 678]", "> 7.00"),
    ("COc1c(F)cccc1Nc1c(-c2ccnc3ccc(N(C)C)nc23)[nH]c2c1C(=O)NCC2 [Compound 697]", "> 7.00"),
    ("Cc1c(Cl)cccc1Nc1c(-c2ccnc(N)n2)[nH]c2c1C(=O)NCC2 [compound 725, trifluoroacetic acid]", "> 7.00"),
    ("CNc1ccc2nccc(-c3[nH]c4c(c3Nc3cccc(Cl)c3OC)C(=O)NCC4)c2n1 [Compound 152]", "> 7.00"),
]

So for COc1c(Cl)cccc1Nc1c(-c2ccnc(NCCN(C)C)n2)[nH]c2c1C(=O)NCC2 [Compound 707] , the logged pIC50 turned out to be < 6.00

So for COc1c(Cl)cccc1Nc1c(-c2ccnc3[nH]c(=O)oc23)[nH]c2c1C(=O)NCC2 [compound 293] , the logged pIC50 turned out to be < 6.00

So for Cc1c(F)cccc1Nc1c(-c2ccnc(N)n2)[nH]c2c1C(=O)NCC2 [compound 282] , the logged pIC50 turned out to be > 7.00

So for COc1c(Cl)cccc1Nc1c(-c2ccncc2F)[nH]c2c1C(=O)NC[C@@H]2C[C@H]1COCCO1 [Compound 481] , the logged pIC50 turned out to be > 7.00

So for COc1c(Cl)cccc1Nc1c(-c2ccnc(Nc3cnn(CC(F)F)c3)n2)[nH]c2c1C(=O)NCC2 [compound 514] , the logged pIC50 turned out to be > 7.00

So for COc1c(Cl)cccc1Nc1c(-c2ccnc(NC3CC3)n2)[nH]c2c1C(=O)NCC2 [compound 112] , the logged pIC50 turned out to be > 7.00

So for COc1c(F)cccc1Nc1c(-c2ccncc2F)[nH]c2c1C(=O)NCC2C[C@@H]1COCCO1 (single isomer, unassigned) [Compound 566] , the logged pIC50 turned out to be > 7.00

So for COc1c(Cl)cccc1Nc1c(-c2ccnc(N)n2)[nH]c2c1C(=O)NC[C@@H]2C [186a] , the logged pIC50 turned out to be > 7.00

So for COc1c(Cl)cccc1Nc1c(-c2ccnc(N)n2)[nH]c2c1C(=O)NC[C@H]2C [186b] , the logged pIC50 turned out to be > 7.00

So for Cc1ccc(F)cc1Nc1c(-c2ccnc(N)n2)[nH]c2c1C(=O)NCC2 [compound 196] , the logged pIC50 turned out to be 6.00 to 7.00

So for COc1c(Cl)cccc1Nc1c(-c2ccnc3ccoc23)[nH]c2c1C(=O)NCC2 [compound 750] , the logged pIC50 turned out to be > 7.00
